assayText: qHTS assay for small molecule antagonists of the retinoid-related orphan receptor gamma (ROR-gamma) signaling pathway - cell viability counter screen (AID 720652);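 note: CHO reporter cells with doxycycline-induced ROR-gamma expression; compound exposure lasted 16 hr before ATP read; % is set by controls: 0 for no effect and ±100 for the full control effect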
statedConditions: RORgamma reporter cell line viability counter screen; series mostly up to 92.2 µM
Records with an inconclusive call do not appear. Calls of active or inactive are those of the source. Calls come from the whole dose curve; as a rule, active = well fitted cell-killing curve with a large enough effect in the repeat runs; inconclusive = weak or mixed curves, or effect the other way; inactive = flat fitted curve, though single readings scatter.
reportedMetric: outcome

Before answering, review these 5 worked examples.
outcome reading for O=C(O)CCC(=O)C(=O)O : inactive

Recorded outcome (compound CCOC(C)=O ): inactive

Reported outcome ( CCCCC/C=C\C/C=C\CCCCCCCC(=O)O ) = inactive

The compound listed as O=S(=O)(O)O has a reported outcome of inactive

The recorded outcome for entry CCOc1ccc2c(c1)C(C)=CC(C)(C)N2 equals inactive

Continuing:
The recorded outcome for entry CC1=C2[C@@H]([C@H](C)CC[C@H]2/C=C(\C)C(=O)O)[C@H](O)C1 equals inactive

Record Nc1ccn([C@H]2CS[C@@H](CO)O2)c(=O)n1 . Reported outcome: inactive

====

Tested on: SKOV3
assayText: Primary qHTS to identify gynecologic anti-cancer compounds using libraries of approved drugs and bioactive compounds (AID 1345084); note: % is set by controls: 0 for no effect and ±100 for the full control effect; nearly all actives have a fitted effect of over 55% in size
statedConditions: Gynecologic cancer cell panel viability, ATPlite luminescence, 48 h; series mostly up to 57.5 µM
Excerpt: National Center for Advancing Translational Sciences [NCATS] Assay Overview: Chemotherapeutic drug responses vary from cancer to cancer and from patient to patient. […] ATPlite is a luminescence based assay reliant on the conversion of a luciferase substrate to light in the presence of ATP. As a cytotoxic compound will suppress growth and decrease the number of cells, the concentration of ATP will decrease, and less light signal will be detected in the well. […]
Inconclusive results are not listed. Active and inactive are the calls of the source. The call rests on the fitted dose curve; in most records, active means well fitted cell-killing curve with a large enough effect; inconclusive means small, poorly fitted or top-dose-only effect, or effect the other way; inactive means flat fitted curve, though single readings scatter.
reportedMetric: activity change, negative = cytotoxicity

The value of activity change, negative = cytotoxicity recorded for C=CC1(C)C=C2C(O)CC3C(C)(C(=O)O)CCCC3(C)C2CC1 (centres undefined) when tested on SKOV3 reads inactive

The value of activity change, negative = cytotoxicity recorded for CCn1c2ccccc2c2cc(CNC)ccc21 when tested on SKOV3 reads inactive

Record C/C=C(\C)C(=O)O[C@H]1[C@H](O)[C@]2(COC(C)=O)[C@H](O)C[C@]3(C)C(=CCC4[C@@]5(C)CC[C@H](O[C@@H]6O[C@H](C(=O)O)[C@@H](O[C@@H]7O[C@H](CO)[C@@H](O)[C@H](O)[C@H]7O)[C@H](O)[C@H]6O[C@@H]6O[C@H](CO)[C@@H](O)[C@H](O)[C@H]6O)[C@](C)(CO)C5CC[C@]43C)[C@@H]2CC1(C)C (some centres undefined) has SKOV3 activity change, negative = cytotoxicity equal to 20.3% [at 11.6 µM] (inactive)

Fill in: SKOV3 activity change, negative = cytotoxicity for CC(C)CC(=O)n1cc(C(N)=O)c(=O)cc1C(O)c1ccccc1 (centres undefined) = inactive

====

Test system: CP203
assayText: qHTS profiling for inhibitors of Plasmodium falciparum proliferation (AID 504749); note: nearly all actives have a fitted effect of over 60% in size
statedConditions: P. falciparum in erythrocytes, SYBR Green DNA, 72 h; series mostly up to 28.7 µM
Inconclusive results are not listed. The source made the active and inactive calls. Calls follow the shape of the dose curve; as a rule, active = well fitted inhibition curve with a large enough effect; inconclusive = small, poorly fitted or top-dose-only effect; inactive = flat fitted curve, though single readings scatter.
Classes to choose from: true = active, false = inactive

Prompt: Write down the call the test reported for this molecule. Item: C#C[C@]1(O)CC[C@H]2[C@@H]3CCC4=CCCC[C@@H]4[C@H]3C(=C)C[C@@]21CC
Response: false

Prompt: Recorded test call requested for O=C(Nc1ccc(Br)cc1)c1cc(Br)c(Br)s1
Response: true

---
Prompt: Please state the recorded outcome for this molecule: O=S(=O)(O)O
Response: false

Prompt: Which result was noted for this molecule in the test: Cc1ccccc1
Response: false

Prompt: How did this test come out for C[C@]12CCC(=O)C=C1CC[C@@H]1[C@@H]2[C@@H](O)C[C@@]2(C)[C@H]1CC[C@]2(O)C(=O)COP(=O)(O)O ?
Response: false

Prompt: Could you please tell me the result logged for O=C(O)CCC(=O)C(=O)O in this assay?
Response: false

Values from PubChem BioAssay (NCATS)
